Collected polymerase ribozyme fitness (log ratio) values appear next to each entry.
B1: TPR t1 (parent)
chain: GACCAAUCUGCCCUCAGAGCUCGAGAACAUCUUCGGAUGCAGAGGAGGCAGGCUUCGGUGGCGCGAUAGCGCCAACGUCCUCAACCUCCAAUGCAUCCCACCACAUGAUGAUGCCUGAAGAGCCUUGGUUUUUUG

# Variants of: B1
# assayNotes: polymerase ribozyme fitness, log enrichment relative to wild type (log ratio); higher = more active; in vitro selection for triplet polymerase activity
Write no unit; give the number alone.

Worked examples, 3 variants total:
GACCAAUCUGCCCUCAGAGCUCGAGAACAUCUUCGGAUGCAGAGGAGGCAGGCUUCGGUGGCGCGAUAGCGCCAACGUCCGCAACCUUCAAUGCAUCCCACCACAUGAUGAUGCCUGAAGAGCCUUGGUUUUUUG
-4.05
GACCAAUCUGCCCUCACAGCUCGAGAACAUCUUCGGAUGCAGAGGAGGCAGGCUUCGGUGACGCGAUAGCGCCAACGUCCUAAACCUCCAAUGCAUCCCACCACAUGAUGAUGCCUGAAGAGCCUUGGUUUUUUG
-4.03
GACCAAUCUGCCAUCAGAGCUCGAGAACAUCUUCGGAUGCAGAGGAGGCAGGUUUCGGUGGCGCGAUAGCGCCAACGUCCUCAACCUCCAAUGCAUCCCACCACAUGAUGAUGCCUGAAGAGCCUUGGUUUUUUG
-2

In the following, a different variant is considered.
// polymerase ribozyme fitness (log ratio) lookup, variant = GACCAAUCUGCCCUAAGAGCUCGAGAACAUCUUCGGAUGCAGAGGAGGCAGGCUUCGGUGGCGCGAUAGCGCCGACGUCCUCAACCUCCAAUGCAUCCCACCACAUGAUGAUACCUGAAGAGCCUUGGUUUUUUG , result: -4.02
